- Tested on: SW-620
- test.name: NCI tumour cell line growth inhibition, 48 h
The source made the active and inactive calls. Rule as the data show it: active = GI50 up to about 1.1 µM and inactive = higher.
attribute.measured: GI50

// known answers, use as guide
[[record]]
molecule = "Cc1ccc(N2C=Nn3c(nc4sc5c(c4c3=O)CCCC5)C2)cc1"
reported_value = "51.8 µM (inactive)"

[[record]]
molecule = "Clc1sc(Cl)c2c1[C@@H](Cl)C[C@@H]2Br"
reported_value = "45.6 µM (inactive)"

[[record]]
molecule = "COC(=O)CC(CC(=O)C(=O)OC)C(=O)OC (stereo not given)"
reported_value = "> 100 µM (inactive)"

[[record]]
molecule = "Cc1ccc([N+](=O)[O-])cc1S(=O)(=O)Nc1ccc(C2=NN(S(=O)(=O)c3cc([N+](=O)[O-])ccc3C)C(c3ccco3)C2)cc1 (stereo not given)"
reported_value = "> 100 µM (inactive)"

[[record]]
molecule = "CC12CCC(=O)N1[C@@H](c1ccccc1)[C@@H](c1ccccc1)O2 (stereo not given in full)"
reported_value = "> 100 µM (inactive)"


For each of the items listed, what is its GI50?
1. CCCn1c(=O)c(N2CCN(c3ccccc3)CC2)nc2sc3ccccc3c21
2. COC1C(CN[N+](=O)CC2OC3OC(C)(C)OC3C2OC)OC2OC(C)(C)OC21 (stereo not given)
3. COc1cccc(C=O)c1C(=O)c1cc(O)ccc1O

Response given:
["> 100 µM (inactive)", "> 100 µM (inactive)", "17.1 µM (inactive)"]

For each of the items listed, what is its GI50?
1. COC(C(O)CO)C(O)C(O)C(=O)NNc1ccccc1 (stereo not given)
2. C=C1CC[C@@H]2[C@](C)(COC(=O)CCC(=O)OC)CCC[C@@]2(C)[C@@H]1CCC1=CC(=O)OC1
3. CC(=O)C=C1Nc2ccccc2N1
4. COC(=O)CCC(NC(=S)N/N=C/c1ccccn1)C(=O)OC (stereo not given)
5. CC(C)(C)c1cc(C(=O)O)c(C(c2ccccc2)c2ccccc2C(=O)O)c(C(=O)O)c1 (stereo not given)
6. O=C(c1ccccc1)c1ccc2nc3n(c2c1)C(c1c(Cl)cccc1Cl)SC3 (stereo not given)

Response given:
["8.49 µM (inactive)", "46.5 µM (inactive)", "> 100 µM (inactive)", "> 100 µM (inactive)", "> 100 µM (inactive)", "3.53 µM (inactive)"]

For each of the items listed, what is its GI50?
1. C1=N\CCNCC/N=C\c2ccc(cc2)OCc2cccc(n2)COc2ccc/1cc2
2. C=C1c2c(cc3c(c2O)c(=O)c2ccccc2n3C)OC1(C)C
3. C=C1C(=O)c2cc3c(cc2C(c2cc(OC)c(OC)c(OC)c2)[C@@H]1C(=O)O)OCO3 (stereo not given in full)

Response given:
> 100 µM (inactive)
> 100 µM (inactive)
53.2 µM (inactive)

For each of the items listed, what is its GI50?
1. COc1ccc(C2C(C#N)=C(S)N(C3OC(CO)C(O)C(O)C3O)C(c3ccccc3)=C2C(C)=O)cc1 (stereo not given)
2. CCCc1c(O)c(=O)c2c(OC)cc(OC)c3c4c(OC)cc(OC)c5c(=O)c(O)c(CCC)c(c1c23)c54
3. Clc1n[nH]c2ccccc12
4. c1c2c(cc(-n3nnc4c3CCCCCC4)c1-n1nnc3c1CCCCCC3)CCCCCC2
5. Cc1cc(C)c(S(=O)(=O)N(CCCCN)OCCCN)c(C)c1
6. CO/N=C(\C(=O)[N-]n1cn[n+](CC(=O)OC(C)(C)C)c1)c1csc(NC(c2ccccc2)(c2ccccc2)c2ccccc2)n1
7. CC(C)(C)N1C(C(=O)c2ccccc2)C1c1ccccc1 (stereo not given)

Response given:
1: 7.18 µM (inactive); 2: 1.13 µM (inactive); 3: > 100 µM (inactive); 4: 11.2 µM (inactive); 5: 17.9 µM (inactive); 6: > 10 µM (inactive); 7: > 100 µM (inactive)

Sure, the documented GI50 for `COC(=O)c1ccc(CS(=O)(=O)c2ccccc2)cc1` is 45.1 µM (inactive)

----------
- System: HCC 2998
- test.name: NCI tumour cell line growth inhibition, 48 h
Calls of active or inactive are those of the source. Cut-off read from the data, not from the text of the source: active = GI50 up to about 1.1 µM and inactive = higher.
What GI50 was measured for each of the following?

[[record]]
molecule = "COC(C(O)CO)C(O)C(O)C(=O)NNc1ccccc1 (stereo not drawn)"
attribute_measured = "GI50"
reported_value = "> 100 µM (inactive)"

[[record]]
molecule = "CSCCCNC(=O)c1csc([C@@H](CSC)NC(=O)CCNC(=O)[C@@H](NC(=O)OCC(Br)(Br)Br)C(C)O)n1 (stereo partly drawn)"
attribute_measured = "GI50"
reported_value = "> 100 µM (inactive)"

[[record]]
molecule = "COC12COC(=O)C1C(c1ccc3c(c1)OCO3)c1cc3c(cc1O2)OCO3 (stereo not drawn)"
attribute_measured = "GI50"
reported_value = "15.6 µM (inactive)"

[[record]]
molecule = "Fc1ccccc1C1CC(C(c2ccccc2)c2ccccc2)=Nc2ccccc2S1 (stereo not drawn)"
attribute_measured = "GI50"
reported_value = "5.35 µM (inactive)"

[[record]]
molecule = "Cc1ccc(C(=O)O)c(/C=C2\\Cc3cc(C)cc(C)c3C2=O)c1"
attribute_measured = "GI50"
reported_value = "70.1 µM (inactive)"


For each of the items listed, what is its GI50?
1. COC(=O)c1ccc(C)cc1CC1Cc2c(C)cccc2C1=O (stereo not drawn)
2. CC(C)=CCN1CC(C)C(=O)Nc2ccccc21 (stereo not drawn)
3. O=C(c1ccccc1)c1ccc2nc3n(c2c1)C(c1c(Cl)cccc1Cl)SC3 (stereo not drawn)

Response given:
1: 11.1 µM (inactive); 2: > 100 µM (inactive); 3: 7.05 µM (inactive)

----------
- Tested on: NCI-H460
- test.name: NCI tumour cell line growth inhibition, 48 h
Calls of active or inactive are those of the source. Rule as the data show it: active = GI50 up to about 1.1 µM and inactive = higher.
Reply using exactly one outcome from Yes (active), No (inactive)

Known results for molecules:
[[record]]
molecule = "Cn1c(-c2ccc[se]2)ccc1-c1ccc(CO)[se]1"
class_assignment = "Yes"

[[record]]
molecule = "O=c1oc2ccccc2c2nc3ccccc3cc12"
class_assignment = "No"

[[record]]
molecule = "Nc1nc2c(=O)c3ccccc3sc2s1"
class_assignment = "No"

[[record]]
molecule = "C=C1c2c(cc3c(c2O)c(=O)c2ccccc2n3C)OC1(C)C"
class_assignment = "No"

[[record]]
molecule = "COc1ccc(C(O)/C(=N/N)c2nc3ccc(Cl)cc3nc2O)cc1 (centres undefined)"
class_assignment = "No"

[[record]]
molecule = "COC(=O)C1CC2C=CC=CC(=O)C2(C)C1 (centres undefined)"
class_assignment = "No"


Challenge: Assay result, entry `Cc1nc(C(N)=S)sc1C(=O)CC(=O)C(=O)Nc1ccccc1[N+](=O)[O-]` — outcome?
Response given: No

Challenge: Assay result, entry C=CCN(c1cc(OC)c2c(c1[N+](=O)[O-])C(C)(SC)C(=O)N2)S(C)(=O)=O (centres undefined) — outcome?
Response given: No

Challenge: Assay result, entry `Cn1c(=O)cc(Nc2ccc(N)cc2)[nH]c1=O` — outcome?
Response given: No

----------
What GI50 was measured for each of the following?
- Tested on: SN12C
- test.name: NCI tumour cell line growth inhibition, 48 h
The source made the active and inactive calls. Rule as the data show it: active = GI50 up to about 1.1 µM and inactive = higher.

// known answers, use as guide
[[record]]
compound = "Cc1ccc(-c2c(N)[n+]([O-])c3ccccc3[n+]2[O-])cc1"
reported_value = "10.6 µM (inactive)"

[[record]]
compound = "COc1ccc(NC(=O)CC(=O)N2N=C(c3ccccc3)C(/N=N/c3ccc(S(=O)(=O)CCOS(=O)(=O)O)cc3)C2=O)cc1 (stereo unspecified)"
reported_value = "> 100 µM (inactive)"

[[record]]
compound = "c1ccc(-c2nnn(CCN3CCCCC3)n2)cc1"
reported_value = "> 100 µM (inactive)"

[[record]]
compound = "O=c1c(Cl)nsnc1Cl"
reported_value = "20.2 µM (inactive)"

[[record]]
compound = "O=[N+]([O-])c1cc(C(F)(F)F)ccc1S(=O)(=O)N[C@@H]1CCCC[C@H]1NS(=O)(=O)c1ccc(C(F)(F)F)cc1[N+](=O)[O-]"
reported_value = "3.45 µM (inactive)"


Would you kindly look at the next entry?
Sure, the documented GI50 for `Cc1ccc(/C=C2\CCCc3ccccc3C2=O)cc1` is 11.7 µM (inactive)

----------
- Test system: SK-MEL-2
- test.name: NCI tumour cell line growth inhibition, 48 h
Calls of active or inactive are those of the source. Rule as the data show it: active = GI50 up to about 1.1 µM and inactive = higher.
Reply using exactly one outcome from True (active), False (inactive)

[[record]]
compound = "C[Si](C)(C)CN1C(=O)c2ccccc2C1(O)c1ccccc1 (stereo unspecified)"
class_assignment = "False"


Challenge: Assay result, entry `Cc1c(C(=O)CC(=O)C(=O)Nc2ccccc2C(F)(F)F)[n+]([O-])c2ccccc2[n+]1[O-]` — outcome?
Response given: False

Challenge: Assay result, entry `C=C1C(=O)O[C@@H]2C(=O)[C@@H](C)CCC/C(C)=C/CC[C@@]3(C)O[C@@H]3C[C@@H]12` — outcome?
Response given: False

Challenge: Assay result, entry COc1ccc(NC(=O)CC(=O)N2N=C(c3ccccc3)C(/N=N/c3ccc(S(=O)(=O)CCOS(=O)(=O)O)cc3)C2=O)cc1 (stereo unspecified) — outcome?
Response given: False
